src = PubChem BioAssay (NCI)

So I've got a bunch of compounds here, and I need their TGI values.
Test system: SK-MEL-5 melanoma
Assay: NCI tumour cell line growth inhibition, 48 h
Where a SMILES comes first, the peptide text is derived from it. [ ]: non-standard residue; d: D form.

For SK-MEL-5 melanoma, give the measured TGI of the entry COC(=O)C1=C(C)NC(C)=C(C(=O)OC)C1c1cccc(/[N+]([O-])=C/c2ccccc2)c1
> 100 µM

For SK-MEL-5 melanoma, give the measured TGI of the entry CC(C)C[C@H](NC(=O)[C@H](CC(C)C)NC(=O)[C@@H](Cc1c[nH]c2ccccc12)NC(=O)[C@H](Cc1ccccc1)NC(=O)[C@@H](Cc1c[nH]c2ccccc12)NC(=O)[C@H](CCC(N)=O)NC(=O)[C@@H](CCC(N)=O)NC(=O)[C@@H]1CCCN1C(=O)[C@@H](CCCCN)NC(=O)[C@H]1CCCN1C(=O)[C@H](N)CCCN=C(N)N)C(N)=O (H-[dR][dP][dK]P[dQ]Q[dW]F[dW]LL-NH2)
> 100 µM

For SK-MEL-5 melanoma, give the measured TGI of the entry O=C(CC12C3C4C1C1C2C3C41CC(=O)NO)NO (stereo not drawn)
> 100 µM

For SK-MEL-5 melanoma, give the measured TGI of the entry CN(C)C(=O)N1N[C@H](c2ccccc2)[C@@H]1c1ccccc1
> 100 µM

For SK-MEL-5 melanoma, give the measured TGI of the entry O=C1C(Cl)N(c2ccc([N+](=O)[O-])cc2)C1c1c[nH]c2ccccc12 (stereo not drawn)
> 100 µM

For SK-MEL-5 melanoma, give the measured TGI of the entry CCOc1ccc2c(c1)C(/C(C(Cl)=C(Cl)Cl)=[N+](/[O-])OC(=O)c1ccccc1)=N2
> 100 µM

For SK-MEL-5 melanoma, give the measured TGI of the entry O=C(CSc1nc2ccc(I)cc2c(=O)n1Cc1ccccc1)Nc1ccccc1
> 100 µM

For SK-MEL-5 melanoma, give the measured TGI of the entry O=C(O)c1cc(NCc2cc(O)ccc2O)ccc1O
> 100 µM

---

System: ACHN renal
Assay: NCI tumour cell line growth inhibition, 48 h
So I've got a bunch of compounds here, and I need their TGI values.

Identify measured TGI associated with C=CC(=O)N1C/C(=C\c2ccc(OC)cc2)C(=O)/C(=C/c2ccc(OC)cc2)C1
3.47 µM

Identify measured TGI associated with N=c1ncn(C/C=C/c2ccccc2)c2nc[nH]c12
> 100 µM

Identify measured TGI associated with Nc1nc(-c2ccc3c(c2)/C(=C\c2cc(Br)c(O)c(Br)c2)C(=O)N3)cs1
> 25 µM

Identify measured TGI associated with CC1(C)CC(=O)C(CC2C(=O)CCCC2=O)C(=O)C1
> 100 µM

Identify measured TGI associated with CCCN=C1NC(C)=CSC(Nc2ccccc2)=C1C#N
> 100 µM

Identify measured TGI associated with Cc1ccc(C)n1-c1ccccc1C1C=Cn2c(=O)oc3c(OC(C)C)c(OC(C)C)c(O)c1c32 (stereo unspecified)
> 100 µM

---

System: MDA-MB-231 breast
Assay: NCI tumour cell line growth inhibition, 48 h
Give label 1 when the value for TGI is at least 30 µM. Give label 0 when it is less.

Please check the record CCC[N+](C)(C)CCCNC(=O)c1c(O)c2ccccc2[nH]c1=O and state if its TGI is at or above 30 µM.
label 1

Please check the record CN1C(=O)N(C)C2C1NC(=S)N2/N=C/C=C/c1ccccc1[N+](=O)[O-] (configuration not stated) and state if its TGI is at or above 30 µM.
label 1

Please check the record O=C1C(c2ccccc2)=C(c2ccccc2)C1(Cl)Cl and state if its TGI is at or above 30 µM.
label 0

Please check the record COc1ccc(/C(=N/O)c2ccccc2C2=Nc3ccccc3C(NCc3ccccc3)O2)cc1C (configuration not stated) and state if its TGI is at or above 30 µM.
label 1

Please check the record Clc1nc2nc(N3CCNCC3)nc(N3CCCC3)c2[nH]1 and state if its TGI is at or above 30 µM.
label 1

Please check the record COC(=O)/C=C1\C(CO[Si](C)(C)C(C)(C)C)OC(n2cc(C)c(=O)n(C)c2=O)C1O[Si](C)(C)C(C)(C)C (configuration not stated) and state if its TGI is at or above 30 µM.
label 1

Please check the record CSc1nnnc2ccccc12 and state if its TGI is at or above 30 µM.
label 1

Please check the record Cc1cc(N(CCC#N)CCC#N)ccc1/C(N=Nc1ccc(C(=O)O)cc1)=N\NC(=O)c1ccccc1 and state if its TGI is at or above 30 µM.
label 1

Please check the record CCn1c(CCCc2nc3c([nH]2)c(=O)n(C)c(=O)n3C)nc2c1c(=O)n(C)c(=O)n2C and state if its TGI is at or above 30 µM.
label 1

Please check the record NS(=O)(=O)c1ccc(-n2nc3c(c2-c2cccs2)Cc2ccccc2-3)cc1 and state if its TGI is at or above 30 µM.
label 1

Please check the record COC(=O)C1=C(C)NC(=S)NC1c1ccc(N(CCCl)CCCl)cc1Cl (configuration not stated) and state if its TGI is at or above 30 µM.
label 1

Please check the record CC(=O)C1=C(C)N(Cc2ccccc2)C2(O)C=CC(=O)C3=C(O)c4ccccc4C(=O)C312 (configuration not stated) and state if its TGI is at or above 30 µM.
label 0

Please check the record COc1cc2nc(-c3cccs3)nc(N3CCN(c4ccccc4)CC3)c2cc1OC and state if its TGI is at or above 30 µM.
label 1

Please check the record CN1CCN(Cc2ccc(NC(=O)c3cncc(C#Cc4ccc(N)nc4)c3)cc2C(F)(F)F)CC1 and state if its TGI is at or above 30 µM.
label 0

Please check the record Oc1ccc(-c2nc3cc(C(F)(F)F)ccc3s2)cc1 and state if its TGI is at or above 30 µM.
label 1

Please check the record COc1cc(OC)c(/C=C/C(=O)c2c(OC)cc(OC)cc2OC)c(OC)c1 and state if its TGI is at or above 30 µM.
label 1

Please check the record COC(=O)NC(Cc1ccccc1)NC(=O)OC(C)(C)C (configuration not stated) and state if its TGI is at or above 30 µM.
label 1

Please check the record c1ccc2c(N=NSc3ncnc4nc[nH]c34)c3ccccc3nc2c1 and state if its TGI is at or above 30 µM.
label 0

Please check the record COP(=O)(CP(=O)(OC)OCCC(C)CCC=C(C)C)OC (configuration not stated) and state if its TGI is at or above 30 µM.
label 1

Please check the record CCC[CH2][Sn]1([CH2]CCC)[O]C(=O)c2cccc([N+](=O)[O-])c2C(=O)[O]1 and state if its TGI is at or above 30 µM.
label 0

Please check the record Cc1ccc(NC(=O)COc2ccc(Cl)cc2)cc1Cl and state if its TGI is at or above 30 µM.
label 1

Please check the record COc1cc2[nH]c3c(c2cc1OC)CCN[C@@]31CC[C@@]2(CC3c4c(cc(OC)c(O)c42)CCN3C)C[C@@H]1OC (some centres not stated) and state if its TGI is at or above 30 µM.
label 1

Please check the record OCc1ccc2c(c1)CC1(Cc3ccccc3C1)C2 and state if its TGI is at or above 30 µM.
label 0

Please check the record CCSC12OC3(CCCCCN3C1=O)C1C(=O)N(c3ccccc3)C(=O)C12 (configuration not stated) and state if its TGI is at or above 30 µM.
label 1

Please check the record CC1(C)CC(=O)c2c(N)n[nH]c2C1 and state if its TGI is at or above 30 µM.
label 1

Please check the record CCCN=C1NC(C)=CSC(Nc2ccccc2)=C1C#N and state if its TGI is at or above 30 µM.
label 1

Please check the record COC(=O)[C@]1(C)CCC[C@@]2(C)C3=C(CC[C@H]12)C[C@@H](CC(OC(C)=O)OC(C)=O)[C@@H](C)C3 and state if its TGI is at or above 30 µM.
label 0

Please check the record N=C1C=CC(=C(c2ccc(N)cc2)c2ccc(N)cc2)C=C1 and state if its TGI is at or above 30 µM.
label 1

Please check the record CCCCCCCCN(CCCCCCCC)CC(O)c1cc(-c2ccccc2)nc2ccc(OC)cc12 (configuration not stated) and state if its TGI is at or above 30 µM.
label 1

Please check the record CCN(CC)CCOc1nc2ccccc2c2c1-c1ccc(OC)cc1C2=O and state if its TGI is at or above 30 µM.
label 0

Please check the record Cn1nc(C(F)(F)F)cc1-c1cc(Cl)c(OCc2ccc(Cl)cc2)c(-c2ccc(Cl)c(C(F)(F)F)c2)c1O and state if its TGI is at or above 30 µM.
label 0

Please check the record CC(C)(C)OC(=O)N1C(=O)C2CCCC21 (configuration not stated) and state if its TGI is at or above 30 µM.
label 1

Please check the record OC(CCN1CCN(CCOC(c2ccccc2)c2ccccc2)CC1)c1ccccc1 (configuration not stated) and state if its TGI is at or above 30 µM.
label 1

Please check the record O=[N+]([O-])c1ccc2c(c1)C(N1CCN(CCO)CC1)Cc1ccc(F)cc1S2 (configuration not stated) and state if its TGI is at or above 30 µM.
label 0

Please check the record O=C(Nc1cccc([N+](=O)[O-])c1)c1cccc(C(=O)Nc2cccc([N+](=O)[O-])c2)c1 and state if its TGI is at or above 30 µM.
label 1
